Values compiled from PubChem BioAssay (NCI).

Let's look at some molecules and their measured growth inhibition.
assay: NCI Yeast Anticancer Drug Screen. Data for the bub3 strain (AID 167); conditions: S. cerevisiae bub3 mutant strain, at 5.0 µM (retest, dose inferred, filed as 0.5), active compounds read high
The panel holds about 79,000 compounds, 15% with a hit somewhere; the sample as a whole holds those more often.
Numeric answer only, unit % assumed.

CCc1[nH]c2ccccc2c1N1C(=O)CC2(CCN(Cc3ccccc3)CC2)CC1=O    -6

// growth inhibition lookup, molecule = CC(Br)C(=O)c1ccc2cc(Cl)c3ccccc3c2c1 (stereo unspecified) , result: 0

// growth inhibition lookup, molecule = COc1ccc(CN2CCCN(Cc3ccc(OC)cc3)C2Cc2cc(Cl)ccc2OC)cc1 , result: -5

// growth inhibition lookup, molecule = COc1cc(CNC(=O)CCCCCCCCCCSC#N)ccc1O , result: 0

====

test: NCI Yeast Anticancer Drug Screen. Data for the mec2-1 strain (AID 157); conditions: S. cerevisiae mec2-1 strain, at 5.0 µM (retest, dose inferred, filed as 0.5)
About 79,000 compounds went through this panel and 15% of them were active in at least one assay; those are over-represented in the sample as a whole. Active and inactive are the calls of the source. Cut-off read from the data, not from the text of the source: active = growth inhibition above about 70%; inactive = the rest.
Give one outcome, nothing more. List: 1 (yes) = active, 0 (no) = inactive

Cc1cc(C(O)(C(F)(F)F)C(F)(F)F)c(I)c(C(O)(C(F)(F)F)C(F)(F)F)c1    1 (yes)
COC(=O)CSc1nc2[nH]c(SC)c(C(N)=O)c2c(=O)n1-c1ccccc1    0 (no)
C/C(=N/NC(N)=O)C1CC(CCC2([N+](=O)[O-])CCC(C)(O)C(/C(C)=N\NC(N)=O)C2)([N+](=O)[O-])CCC1(C)O (stereo unspecified)    0 (no)
CC(C)N1C(=O)c2ccccc2S1(Cl)c1ccccc1 (stereo unspecified)    0 (no)
CCCCCCOC(=O)COc1ccccc1    0 (no)

Query: recorded result category for CC(=O)c1c(-c2ccc(Cl)cc2)c(-c2ccc(Cl)cc2)nn(CCO)c1=O in this test
Response: 0 (no)

Query: recorded result category for CCCCCCCCCCCCCCCCCC(=O)OCCOCCO in this test
Response: 0 (no)

Query: recorded result category for CCOC(=O)c1ccc(O)c(OC)c1 in this test
Response: 0 (no)

Query: recorded result category for c1ccc2[nH]c(CN(CCN(Cc3nc4ccccc4[nH]3)Cc3nc4ccccc4[nH]3)Cc3nc4ccccc4[nH]3)nc2c1 in this test
Response: 1 (yes)

Query: recorded result category for Cc1ccc(C(CN)(CCBr)c2ccc(C)cc2)cc1 in this test
Response: 0 (no)

Query: recorded result category for O=S(=O)(Nc1ccc2c3c(cccc13)C=C2)c1ccccc1 in this test
Response: 0 (no)

Query: recorded result category for CC(C)=CN(C)C (tested in a mixture with another compound) in this test
Response: 0 (no)

Query: recorded result category for COc1ccccc1C(c1cc2c(cc1O)OCO2)N1CCOCC1 (stereo unspecified) in this test
Response: 0 (no)

====

assay: NCI Yeast Anticancer Drug Screen. Data for the mec2-1 strain (AID 157); details: S. cerevisiae mec2-1 strain, at 5.0 µM (retest, dose inferred, filed as 0.5), active compounds read high
This is part of a sample that, as a whole, favours compounds with a hit. Of some 79,000 tested, about 15% had one in any assay.
Measure Name: growth inhibition (%)
Numeric answer only, unit % assumed.

Here's what some known entries look like.
NC(=S)Nc1ccccc1O    -10
O=C(Nc1cc(Cl)c(Cl)cc1Cl)C(=O)C(C(=O)c1ccc2ccccc2c1)C1OC(=O)c2ccccc21 (stereo not drawn)    2

Now consider the entry below.
// growth inhibition lookup, molecule = COC1CCC2(C)C(=CCC3C4CC(OC(C)=O)CC4(C)CCC32)C1 (stereo not drawn) , result: -2

====

experiment: NCI Yeast Anticancer Drug Screen. Data for the sgs1 mgt1 strain (AID 161);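 also: 0% = growth of cultures given vehicle only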; settings: S. cerevisiae sgs1 mgt1 strain, at 50.0 µM, active compounds read high
The panel holds about 79,000 compounds, 15% with a hit somewhere; the sample as a whole holds those more often.
Lab note: anything with growth inhibition at or over 80% counts as T; the rest go in F.

Cc1n[n+]([O-])c(C)cc1[N+](=O)[O-]    T

Query: Answer whether growth inhibition of CCCCN(CCCC)CC(O)c1cccc2c(Cl)cccc12 (centres undefined) is greater than or equal to 80%.
Response: T

Query: Answer whether growth inhibition of N#CC#Cc1cccc(C#CC#N)c1 is greater than or equal to 80%.
Response: F

====

assay: NCI Yeast Anticancer Drug Screen. Data for the cln2 rad14 strain (AID 165);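 also: 0% = growth equal to vehicle treated cultures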; conditions: S. cerevisiae cln2 rad14 strain, at 50.0 µM
Compounds without any hit were thinned out: in the full panel of roughly 79,000, 15% have a hit. Activity calls are given as the source filed them. No stated cut-off is given here; in the data, active means growth inhibition above about 70%; inactive means the rest.
Give one outcome, nothing more. List: t (active), f (inactive)

The examples below pair each entry with its known result.
CCCCN(C(=O)c1ccccc1)C1CCC(=O)c2[nH]c3ccccc3c21 (centres undefined)    t
CCNc1cc(SC)nc(N)n1    f
CN(C)C(=O)/C=C/c1c[nH]c(=O)[nH]c1=O    f

Query: recorded result category for O=S(=O)(O)CNc1cc(Cl)cc(Cl)c1 in this test
Response: f

Query: recorded result category for CC(=O)N1C/C(=C\c2ccccc2)C(=O)/C(=C/c2ccccc2)C1 in this test
Response: f

Query: recorded result category for Nc1nc(-c2ccccc2)nc(Cl)c1I in this test
Response: f

Query: recorded result category for COC(=O)C1=C(C)NC(C)=C(C(=O)OC)C1c1ccc(NCc2ccccc2)c([N+](=O)[O-])c1 in this test
Response: f

Query: recorded result category for Cc1cc(O)ccc1C1(c2ccc(F)cc2)OC(=O)c2ccccc21 (centres undefined) in this test
Response: t

====

assay: NCI Yeast Anticancer Drug Screen. Data for the bub3 strain (AID 167); settings: S. cerevisiae bub3 mutant strain, at 50.0 µM (retest, dose inferred, filed as 5.0)
About 79,000 compounds went through this panel and 15% of them were active in at least one assay; those are over-represented in the sample as a whole. Activity calls are given as the source filed them. Cut-off read from the data, not from the text of the source: active = growth inhibition above about 70%; inactive = the rest.
Give one outcome, nothing more. List: active, inactive

The examples below pair each entry with its known result.
CCN(CCO)CC1OC(OC)C2OC(C)(C)OC12 (stereo not drawn)    active
O=C(c1c(F)c(F)c(F)c(F)c1F)N1CCN(C(=O)c2c(F)c(F)c(F)c(F)c2F)C1=S    active
S=c1sc2ccccc2n1CNc1ccccc1    inactive
Oc1cc(O)c2c(c1)OC(c1ccc(O)c(O)c1)C(OC1(c3cc(O)c(O)c(O)c3)Oc3cc(O)cc(O)c3C(O)C1O)C2 (stereo not drawn)    inactive

Query: recorded result category for Cc1ccc(C)c(C(=O)/C=C/C(=O)O)c1 in this test
Response: active

Query: recorded result category for O=C(O)C1(Cc2ccc3c(c2)CCC3)Cc2ccccc2C1 in this test
Response: inactive

Query: recorded result category for S=C(NC(=S)Nc1ccccc1)Nc1ccccc1 in this test
Response: inactive

Query: recorded result category for Cc1cccc(Cl)c1NC(=S)Nc1cccc(C(F)(F)F)c1 in this test
Response: inactive

Query: recorded result category for CC[Si](CC)(CC)c1ccc(CCNCCS)s1 in this test
Response: active

Query: recorded result category for CCCCCCCN=C(N)c1ccc(C(=O)OC2CCCCC2)cc1 in this test
Response: active

Query: recorded result category for Cn1c(=O)cc[nH]c1=O in this test
Response: inactive

Query: recorded result category for CN(C)C(=S)/N=c1\sn(C)/c(=N\C(=S)N(C)C)n1C in this test
Response: inactive

Query: recorded result category for CN(C)CCN(C)N=Nc1c(-c2ccc(Cl)cc2)n[nH]c1C(F)(F)F in this test
Response: active

====

test: NCI Yeast Anticancer Drug Screen. Data for the bub3 strain (AID 167); settings: S. cerevisiae bub3 mutant strain, at 5.0 µM (retest, dose inferred, filed as 0.5), active compounds read high
The panel holds about 79,000 compounds, 15% with a hit somewhere; the sample as a whole holds those more often.
Let's look at some compounds and their measured growth inhibition.
Numeric answer only, unit % assumed.

S=c1c2cn[nH]c2nc2scc(-c3ccc(Cl)cc3)n12    -4
O=C(NCCN1CCCC1)c1cn2c(ccc3sc4ccccc4c(=O)c32)n1    20
C=CC(=O)Nc1ccccc1CC(c1c[nH]c2ccccc12)c1c[nH]c2ccccc12    21
Cc1occc1C(=S)Nc1ccc(Cl)c(COC(C)(C)C)c1    26
FC(F)(F)c1ccc(Cl)c(NC(=S)SC2CCCCC2)c1    0

// growth inhibition lookup, compound = O=C1C2=C(CCCC2)C(=O)C(Cl)C1Cl (stereo unspecified) , result: 56

====

test: NCI Yeast Anticancer Drug Screen. Data for the cln2 rad14 strain (AID 165);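 also: 0% = growth equal to vehicle treated cultures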; settings: S. cerevisiae cln2 rad14 strain, at 50.0 µM, active compounds read high
The panel holds about 79,000 compounds, 15% with a hit somewhere; the sample as a whole holds those more often.
Measure Name: growth inhibition (%)
Numeric answer only, unit % assumed.

Cc1ccc(C(=O)/C=C/c2ccccc2)cc1    -22
c1ccc2[nH]c(CN(CCN(Cc3nc4ccccc4[nH]3)Cc3nc4ccccc4[nH]3)Cc3nc4ccccc4[nH]3)nc2c1    90.3

// growth inhibition lookup, molecule = c1ccc2c(c1)cc(C1NCCc3[nH]cnc31)c1ccccc12 (configuration not stated) , result: 30.4

// growth inhibition lookup, molecule = O=C(/C(=C\I)c1ccccc1)c1ccccc1 , result: 89.9

// growth inhibition lookup, molecule = C/C(CC(O)(C(F)(F)F)C(F)(F)F)=N/Nc1ccc([N+](=O)[O-])cc1[N+](=O)[O-] , result: 99.3

// growth inhibition lookup, molecule = O=C1c2ccccc2C(=O)c2c1cc(O)c(O)c2O , result: 59.2
